Data provenance is patent US5902812A.

molecular target: PAI-1 (Homo sapiens, UniProt P05121); assay: biochemical; details: 100 μM; read-out: Degree of inhibition in PAI chromogenic substrate assay
Sequence (P05121 24-402): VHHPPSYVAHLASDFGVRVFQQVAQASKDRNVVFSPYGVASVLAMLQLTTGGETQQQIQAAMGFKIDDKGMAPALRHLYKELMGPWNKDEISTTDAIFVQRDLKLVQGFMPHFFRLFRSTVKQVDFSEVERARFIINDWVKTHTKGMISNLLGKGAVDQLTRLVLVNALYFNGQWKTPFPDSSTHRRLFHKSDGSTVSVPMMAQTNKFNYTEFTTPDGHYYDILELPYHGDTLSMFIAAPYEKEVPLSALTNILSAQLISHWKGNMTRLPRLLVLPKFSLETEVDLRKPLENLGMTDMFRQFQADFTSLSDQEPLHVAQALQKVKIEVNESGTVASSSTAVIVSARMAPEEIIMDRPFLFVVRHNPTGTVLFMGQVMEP
Where a name gives a salt, the structure may show the parent alone.
Give measured inhibition at 100 µM for each item. Keep answers brief.
Report the value in % with no unit label.

Query string: Quick one: inhibition at 100 µM of CCCCCCC(=O)Oc1ccc(/C=c2\[nH]c(=O)/c(=C/c3ccc(OC)cc3)[nH]c2=O)cc1 [Compound 1887] ?
Result string: 83

Query string: Quick one: inhibition at 100 µM of CN(C)Cc1ccc(/C=c2\[nH]c(=O)/c(=C/c3ccccc3)[nH]c2=O)cc1 [Compound 1913] ?
Result string: 71

Query string: Quick one: inhibition at 100 µM of CN(C)CCOc1cccc(/C=c2\[nH]c(=O)/c(=C/c3cccc(OCCN(C)C)c3)[nH]c2=O)c1 [Compound 1947] ?
Result string: 1

Query string: Quick one: inhibition at 100 µM of CN(C)CCOc1ccc(/C=c2\[nH]c(=O)/c(=C/c3ccc(F)cc3F)[nH]c2=O)cc1 [Compound 1977] ?
Result string: 54

Query string: Quick one: inhibition at 100 µM of CN(C)CCOc1ccc(/C=c2\[nH]c(=O)/c(=C/c3ccc(OCCN(C)C)cc3)[nH]c2=O)cc1 [Compound 1962, dihydrochloride] ?
Result string: 2

Query string: Quick one: inhibition at 100 µM of COc1ccc(/C=c2\[nH]c(=O)/c(=C/c3ccc(OCCN(C)C)cc3)[nH]c2=O)cc1 [Compound 1911] ?
Result string: 38

Query string: Quick one: inhibition at 100 µM of CCCCOc1ccc(/C=c2\[nH]c(=O)/c(=C/c3ccc(OCCCN(C)C)cc3)[nH]c2=O)cc1 [Compound 1920] ?
Result string: 68
